Test system: CYP1A1 mRNA in primary human hepatocytes
Experiment: CYP1A1 mRNA expression in primary human hepatocytes
Format: cell-based
Conditions: 10 µM
parameter-measured: CYP1A1 mRNA fold induction over the vehicle-treated cells, LH46 (fold)
Answers are plain numbers, in fold.

Below, each entry is followed by its recorded CYP1A1 mRNA fold induction over the vehicle-treated cells, LH46 result.
{"molecule": "OC[C@H]1O[C@@H](Oc2cc3c(O)cc(O)cc3[o+]c2-c2ccc(O)c(O)c2)[C@H](O[C@@H]2OC[C@@H](O)[C@H](O)[C@H]2O)[C@@H](O)[C@H]1O.[Cl-] [CYA-9, cyanidin-3-O-lathyroside chloride]", "unit-string": "fold", "reported-result": 0.91}
{"molecule": "OC[C@H]1O[C@@H](Oc2cc3c(O)cc(O)cc3[o+]c2-c2ccc(O)c(O)c2)[C@H](O[C@@H]2OC[C@@H](O)[C@H](O)[C@H]2O)[C@@H](O)[C@@H]1O.[Cl-] [CYA-8, cyanidin-3-O-sambubioside chloride]", "unit-string": "fold", "reported-result": 1.48}
{"molecule": "C[C@@H]1O[C@@H](Oc2cc3c(O)cc(O)cc3[o+]c2-c2ccc(O)c(O)c2)[C@H](O)[C@H](O)[C@H]1O.[Cl-] [CYA-6, cyanidin-3-O-rhamnoside chloride]", "unit-string": "fold", "reported-result": 1.19}
{"molecule": "C[C@@H]1O[C@@H](OC[C@H]2O[C@@H](Oc3cc4c(O)cc(O)cc4[o+]c3-c3ccc(O)c(O)c3)[C@H](O)[C@@H](O)[C@@H]2O)[C@H](O)[C@H](O)[C@H]1O.[Cl-] [CYA-2, cyanidin-3-O-rutinoside chloride]", "unit-string": "fold", "reported-result": 0.55}

Please look at the items below and tell me CYP1A1 mRNA fold induction over the vehicle-treated cells, LH46 for each one, in order.
1. OC[C@H]1O[C@@H](Oc2cc3c(O[C@@H]4O[C@H](CO)[C@@H](O)[C@H](O)[C@H]4O)cc(O)cc3[o+]c2-c2ccc(O)cc2)[C@H](O)[C@@H](O)[C@@H]1O [PEL-1, pelargonidin-3,5-di-O-glucoside chloride]
2. Oc1cc(O)c2cc(O[C@@H]3OC[C@H](O)[C@H](O)[C@H]3O)c(-c3ccc(O)c(O)c3)[o+]c2c1.[Cl-] [CYA-5, cyanidin-3-O-arabinoside chloride]

[1.49, 0.67]
